- Test Description: Cytotoxicity against in Balb/c mouse B cells at 10^-6 M after 48 hrs by MTT assay
- Type: cell-based
- Details: 1 µM
Attribute Measured: Activity

Examples with answers:
Molecule: Cc1cc(OCc2cnnn2-c2cccc(Br)c2COc2cccc(Br)c2)c(C)c2c1CC[C@H]1[C@H](C)C(=O)O[C@@H]21
Activity: Toxic
//
Molecule: Cc1cc(OCc2cnnn2-c2ccccc2)c(C)c2c1CC[C@H]1[C@H](C)C(=O)O[C@@H]21
Activity: Non-toxic
//
Molecule: Cc1cc(OCc2cnnn2-c2cccc([N+](=O)[O-])c2)c(C)c2c1CC[C@H]1[C@H](C)C(=O)O[C@@H]21
Activity: Non-toxic
//
Molecule: COc1ccc(F)c(-n2nncc2COc2cc(C)c3c(c2C)[C@@H]2OC(=O)[C@@H](C)[C@@H]2CC3)c1Br
Activity: Toxic
//
Molecule: Cc1cc(OCc2cnnn2-c2c(Br)ccc(I)c2F)c(C)c2c1CC[C@H]1[C@H](C)C(=O)O[C@@H]21
Activity: Non-toxic

Here is the next item to consider.
Field request: Activity | item: Cc1cc(OCc2cnnn2-c2ccccc2C(F)(F)F)c(C)c2c1CC[C@H]1[C@H](C)C(=O)O[C@@H]21
Non-toxic

---

- Test Description: Cytotoxicity against in Balb/c mouse T cells at 10^-5 M after 48 hrs by MTT assay
- Format: cell-based
- Details: t-cell, 10 µM
Attribute Measured: Activity

Examples with answers:
Molecule: Cc1cc(OCc2cnnn2-c2ccc3c(c2)OCO3)c(C)c2c1CC[C@H]1[C@H](C)C(=O)O[C@@H]21
Obs Value: Non-toxic

Molecule: CC(=O)Nc1ccc(-n2nncc2COc2cc(C)c3c(c2C)[C@@H]2OC(=O)[C@@H](C)[C@@H]2CC3)cc1
Obs Value: Non-toxic

Molecule: Cc1cc(OCc2cnnn2-c2ccc(F)cc2)c(C)c2c1CC[C@H]1[C@H](C)C(=O)O[C@@H]21
Obs Value: Non-toxic

Molecule: CCCOc1ccc(-n2nncc2COc2cc(C)c3c(c2C)[C@@H]2OC(=O)[C@@H](C)[C@@H]2CC3)cc1Cl
Obs Value: Non-toxic

Molecule: Cc1cc(OCc2cnnn2-c2cccc([N+](=O)[O-])c2)c(C)c2c1CC[C@H]1[C@H](C)C(=O)O[C@@H]21
Obs Value: Toxic

Molecule: Cc1cc(OCc2cnnn2-c2ccc(Br)c3ccccc23)c(C)c2c1CC[C@H]1[C@H](C)C(=O)O[C@@H]21
Obs Value: Toxic

Field request: Activity | item: Cc1cc(OCc2cnnn2-c2c(Br)ccc(I)c2F)c(C)c2c1CC[C@H]1[C@H](C)C(=O)O[C@@H]21
Non-toxic

---

- Test Description: Cytotoxicity against in Balb/c mouse B cells at 10^-5 M after 48 hrs by MTT assay
- Format: cell-based
- Details: 10 µM
Attribute Measured: Activity

Examples with answers:
Molecule: Cc1cc(OCc2cnnn2-c2ccc(Br)c3ccccc23)c(C)c2c1CC[C@H]1[C@H](C)C(=O)O[C@@H]21
Activity: Toxic

Molecule: Cc1cc(OCc2cnnn2-c2c(Br)ccc(I)c2F)c(C)c2c1CC[C@H]1[C@H](C)C(=O)O[C@@H]21
Activity: Non-toxic

Molecule: C#CCOc1cc(C)c2c(c1C)[C@@H]1OC(=O)[C@@H](C)[C@@H]1CC2
Activity: Non-toxic

Molecule: COc1cc(-n2nncc2COc2cc(C)c3c(c2C)[C@@H]2OC(=O)[C@@H](C)[C@@H]2CC3)cc(OC)c1OC
Activity: Non-toxic

Molecule: Cc1cc(OCc2cnnn2-c2cccc(O)c2)c(C)c2c1CC[C@H]1[C@H](C)C(=O)O[C@@H]21
Activity: Non-toxic

Field request: Activity | item: Cc1cc(OCc2cnnn2-c2ccccc2C(F)(F)F)c(C)c2c1CC[C@H]1[C@H](C)C(=O)O[C@@H]21
Non-toxic

And then Cc1cc(OCc2cnnn2-c2ccc(Br)cc2)c(C)c2c1CC[C@H]1[C@H](C)C(=O)O[C@@H]21 , what is it?
Non-toxic
